- experiment_description: qHTS Assay for Lipid Storage Modulators in Drosophila S3 Cells
- experimental_context: BODIPY lipid droplet fluorescence, 18-24 h, cells fed with added oleic acid; series mostly up to 46.1 µM
The campaign covered roughly 320,000 compounds. About 2,100 (0.66%) were called active. Inconclusive results (about 53%) are left out. Calls follow the shape of the dose curve; as a rule, active = well fitted inhibition curve with a large enough effect in the signal ratio, with a control signal flat (not every such curve was filed as active); inconclusive = small, poorly fitted or top-dose-only effect, or effect the other way, or a change in a side signal; inactive = flat fitted curve, though single readings scatter; the % refers to the signal ratio. Many of the other results were omitted from the sample, so actives are more common in it than they were.
Possible outcomes: True = active, False = inactive

compound | cat
COc1ccc(CCN(/C=C2\Sc3ccccc3C2=O)C(C)=O)cc1OC | False
O=C(CN1C(=O)COc2ccccc21)Nc1ccc2c(c1)OCCO2 | False
CC(=O)N/C(=C/c1ccccc1)C(=O)NCCO | False
O=C(O)c1ccc(-c2nnc(-c3cccc(Br)c3)o2)cc1 | False
CCCCOc1ccc(-c2nnc(-c3cc[n+](C)cc3)o2)cc1 | False
O=S(=O)(c1cccc2nsnc12)N1CCN(C/C=C/c2ccccc2)CC1 | False
O=C(CC1Sc2ccccc2NC1=O)NCc1ccccc1 (centres undefined) | False
COc1ccccc1N(/N=C1\Sc2ccccc2C1=O)C(C)=O | True
Cc1c2cnn(CC(=O)NCc3ccccn3)c(=O)c2c(C)n1Cc1ccccc1 | False
CN1C(=S)SC(C)(C)C1NO (centres undefined) | False
C/C(CS(=O)(=O)c1ccccc1)=N\O | False
Cc1ccc(C)c(Cn2c3ccccc3c3cnn(CC(=O)NCc4ccccn4)c(=O)c32)c1 | False
CN1C(=S)SC(C)(C)C1(C)NO (centres undefined) | True
COC(=O)/C=C1\SC(=Nc2ccccc2)NC1=O | False
CN(C)S(=O)(=O)c1cc(NC(=O)COC(=O)CCc2ccccc2)ccc1Cl | False
Cc1cc(C)c(Cn2c3ccccc3c3cnn(CC(=O)NCc4ccccn4)c(=O)c32)c(C)c1 | True
CN1C(=S)SC(C)(NO)C1(C)C (centres undefined) | True
CC(=O)c1cccc(NC(=O)COc2ccc(S(=O)(=O)N3CCCCC3)cc2)c1 | False
CC1CCCCC1NC(=O)c1ccc(S(=O)(=O)N2CCCC2)cc1 (centres undefined) | False
CN(C(=O)c1ccc(=O)[nH]c1)C1(C(=O)NC2CCCCC2)CCCCC1 | False
COC(=O)/C=C1/SC(=Nc2ccc(Cl)c(Cl)c2)NC1=O | False
C/C=C(\CS(=O)(=O)c1ccccc1)S(=O)(=O)c1ccccc1 | True
Cn1c(Sc2ccc(C(=O)O)cc2[N+](=O)[O-])nnc1-c1ccccc1 | False
Cc1cc(C)n(-c2ccc(C(=O)NC3CCCCC3)cc2)n1 | False

* * *

- experiment_description: qHTS Assay for Lipid Storage Modulators in Drosophila S3 Cells
- experimental_context: BODIPY lipid droplet fluorescence, 18-24 h, cells fed with added oleic acid; series mostly up to 46.1 µM
Screen size: about 320,000 compounds; about 2,100 (0.66%) were called active. About 53% were inconclusive and are not listed. Calls follow the shape of the dose curve; as a rule, active = well fitted inhibition curve with a large enough effect in the signal ratio, with a control signal flat (not every such curve was filed as active); inconclusive = small, poorly fitted or top-dose-only effect, or effect the other way, or a change in a side signal; inactive = flat fitted curve, though single readings scatter; the % refers to the signal ratio. This is one part of a sample in which actives are shown more often than they occur.
Possible outcomes: TRUE for active, FALSE for inactive

compound_smiles | cat
CCn1c(=O)c2sccc2n2c(CCCC(=O)NC3CCN(Cc4ccccc4)CC3)nnc12 | FALSE
CCN(CC)S(=O)(=O)c1ccc(C(=O)NCCOC(=O)c2ccc(F)cc2F)cc1 | TRUE
CCOC(=O)c1[nH]c2ccc(Cl)cc2c1NC(=O)c1nonc1C | FALSE
Cc1c(C(=O)N2CCCCC2)c(S(=O)(=O)NCCc2ccccc2)c(C)n1C | FALSE
O=C(COC(=O)c1ccccn1)Nc1cccc(Cl)c1 | FALSE
CCOC(=O)C1CCN(C(=O)CCCn2nc(CC)n3c(cc4occc43)c2=O)CC1 | FALSE
CCOC(=O)c1[nH]c2cc(OC)c(OC)cc2c1NC(=O)c1nonc1C | FALSE
CC(C)Cn1c(=O)c2sccc2n2c(CCCC(=O)NC3CCN(Cc4ccccc4)CC3)nnc12 | FALSE
CCc1nn(CCCC(=O)NCc2ccccc2C)c(=O)c2cc3occc3n12 | FALSE
CCc1nn(CCCC(=O)N2CCN(c3cccc(C)c3C)CC2)c(=O)c2cc3occc3n12 | FALSE

* * *

- experiment_description: qHTS Assay for Lipid Storage Modulators in Drosophila S3 Cells;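 as to cell number change: cells counted by Cell Tracker Red CMTPX staining in the red channel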
- experimental_context: BODIPY lipid droplet fluorescence, 18-24 h, cells fed with added oleic acid; measured here: cell count max response
Hit rate of the full screen: of about 320,000 compounds, about 2,100 (0.66%) were called active. Roughly 53% stayed inconclusive and do not appear here. Shown is part of a subset that was picked to be rich in actives.
assay_readout: cell number change (%)

molecule | observed_value
COc1ccc(NS(=O)(=O)c2ccc(N3CCN(CCO)CC3)c([N+](=O)[O-])c2)cc1 | -29.2
CCOC(=O)CS(=O)(=O)c1ccccc1 | 1.52
Cc1cc(C)cc(C(=O)Oc2cc(C)[nH]c(=O)c2[N+](=O)[O-])c1 | -7.31
COC(=O)c1cc(NS(=O)(=O)c2ccc(N3CCCCC3)c([N+](=O)[O-])c2)cc(C(=O)OC)c1 | -2.76
CCOC(=O)c1c(NC(=O)Cn2cnc([N+](=O)[O-])n2)sc2c1CCC(C)C2 (configuration not stated) | 2.74
CCOC(=O)C1=C(C)NC(=O)NC1c1ccc(OC(=O)c2ccco2)cc1 (configuration not stated) | -14
Cc1cc(Cl)ccc1NC(=S)NCc1ccco1 | -9.3
CNc1nc(N)c([N+](=O)[O-])c(Nc2ccccc2OC)n1 | 11.2
COc1ccc(NS(=O)(=O)c2ccc(N)c(C(=O)O)c2)cc1 | 1.73
COc1ccc(NS(=O)(=O)c2ccc(C)c(C(=O)O)c2)cc1 | -20.6
Cc1cccc(CSCCNC(=O)CSCc2ccc([N+](=O)[O-])cc2)c1 | -21.3
COc1ccc2[nH]c(=O)c(CN(Cc3cccnc3)Cc3nnnn3CC3CCCO3)cc2c1 (configuration not stated) | -7.7
Nc1ccc(C(=O)OCCCc2nc3cc4ccccc4cc3[nH]2)cc1 | -15.5
COCCCn1c(SCC(=O)NC(C)C)nnc1-c1ccccc1 | 1.73
Cc1ccccc1CSCCNC(=O)CSCc1ccc([N+](=O)[O-])cc1 | -11.7
Cc1nc(C)c(C(=O)NCc2ccccc2Cl)o1 | -27.9
COc1ccc(S(=O)(=O)Nc2ccc(NC(C)=O)cc2)cc1 | 29.3
Cc1c(C)c(C)c(S(=O)(=O)NCCC(=O)N2CCN(Cc3ccc(C#N)cc3)CC2)c(C)c1C | 10.7
Nc1ccc(C(=O)OCCCc2nc3ccccc3[nH]2)cc1 | 0.404
COc1cc(OC)cc(C(=O)NCC(=O)OCC(=O)NC(C)(C)C)c1 | 16.7
N#Cc1ccc(CN2CCN(C(=O)CCNS(=O)(=O)c3ccc(F)c(Cl)c3)CC2)cc1 | -29
COC(=O)c1ccc(OC(=O)c2ccccn2)cc1 | 10.3

* * *

- experiment_description: qHTS Assay for Lipid Storage Modulators in Drosophila S3 Cells
- experimental_context: BODIPY lipid droplet fluorescence, 18-24 h, cells fed with added oleic acid; series mostly up to 46.1 µM
Screen size: about 320,000 compounds; about 2,100 (0.66%) were called active. Roughly 53% stayed inconclusive and do not appear here. The call rests on the fitted dose curve; in most records, active means well fitted inhibition curve with a large enough effect in the signal ratio, with a control signal flat (not every such curve was filed as active); inconclusive means small, poorly fitted or top-dose-only effect, or effect the other way, or a change in a side signal; inactive means flat fitted curve, though single readings scatter; the % refers to the signal ratio. This excerpt belongs to a sample that is enriched for actives.
Possible outcomes: y (active), n (inactive)

molecule | cat
Cc1cc(C)c(OCCCCCNCCO)c(C)c1 | y
COc1ccc(-c2csc(NC(=O)CN3C(=O)NC4(CCCC4)C3=O)n2)c(OC)c1 | y
Cc1cccc(-n2c(C)cc(C(=O)NC3CCCCC3)c2C)c1 | y
O=C1C(=O)N(CCN2CCOCC2)C(c2cccnc2)/C1=C(/O)c1ccccc1 (stereo not drawn) | n
O=C(COC(=O)CNC(=O)c1ccco1)Nc1ccc(Cl)cn1 | n
O=C(CCCCCNC(=O)N1CCn2c1nc1ccccc12)NCc1ccccc1 | n
CCc1ccc(-c2cc(C)no2)cc1S(=O)(=O)Nc1ccccn1 | n
O=C1NC2(CCCCC2)Cc2ccccc21 | n
CCOC(=O)c1sc2nc(C)nc(SCC(=O)NC(C)CCc3ccccc3)c2c1C (stereo not drawn) | n
CCc1ccc(-c2cc(C)no2)cc1S(=O)(=O)N1CCCN(Cc2ccc(F)cc2)C1 | n
Cc1ccc(C)c(NC(=O)C2CCCN2S(=O)(=O)c2ccc3c(c2)n(C)c(=O)c(=O)n3C)c1 (stereo not drawn) | n
Cc1cc(C(=O)NC2CCCCC2)c(C)n1-c1ccc(F)cc1 | n
COc1ccc(-n2c(C)cc(C(=O)NC3CCCCC3)c2C)cc1 | n
Cc1cc(-c2ccc(C)c(S(=O)(=O)N3CC(=O)Nc4ccccc43)c2)on1 | y
Cc1ccccc1OCCCCCNCCO | n
O=c1oc(-c2cccs2)nc2ccccc12 | n
Cc1ccc(OCCC(=O)OCC(=O)Nc2ccc(Cl)cn2)cc1 | n
CCc1ccc(-c2cc(C)no2)cc1S(=O)(=O)NCCc1ccccc1 | n
CCc1ccc(-c2cc(C)no2)cc1S(=O)(=O)N1CCOc2ccccc21 | y
COc1ccc(CCNc2c(C=O)c(=O)[nH]c3ccccc23)cc1OC | n
CCn1c(=O)c2cc(C(=O)NCC(OC)OC)sc2c2ccccc21 | n
COc1ccc(NC(=O)Nc2nnc(Cc3ccc(F)cc3)s2)cc1 | n
COc1ccc(CSc2nncn2C)cc1[N+](=O)[O-] | n
